- assay-comment: Maternal indices: dam body weight, gestational weight gain, liver and kidney weight after daily oral gavage E1.5 to E11.5 or E17.5
- Format: in vivo, mouse (CD-1)
- recorded-conditions: female, CD-1, mouse, in vivo, oral; dam systemic toxicity: liver alterations, higher GWG, placental lesions; read-out: Lowest dose group evaluated, with significant adverse effects (no NOAEL reportable)
outcome-measure: LOAEL (mg/kg/day)
Quick reminder: number only, in mg/kg/day, skip the unit.

Challenge: Indicate its recorded LOAEL; the compound in question is N.O=C(O)C(F)(OC(F)(F)C(F)(F)C(F)(F)F)C(F)(F)F (stereo not shown) [GenX]
Response given: 2

----------
- assay-comment: Litter parameters at necropsy (implantation sites, resorptions, viable and nonviable embryos)
- Assay type: in vivo, mouse (CD-1)
- recorded-conditions: female, CD-1, mouse, in vivo, oral, 2 mg/kg/d, percent of implantation sites; E17.5
outcome-measure: viability
Include the unit right after the number.

Challenge: Indicate its recorded viability; the compound in question is N.O=C(O)C(F)(OC(F)(F)C(F)(F)C(F)(F)F)C(F)(F)F (stereo not shown)
Response given: 98.1%
